pIC50: −log10 of the molar value.
Form: system (ROCK1 kinase (Homo sapiens)), quantity (pIC50), values below.

| compound | pIC50 |
| --- | --- |
| O=C(NCC1CC1)c1cc(F)cc(CNC(=O)N2CCc3cc(-c4cn[nH]c4)c(F)cc32)c1 | ≥ 7.30 |
| O=C(NCc1cccc(OCC2CC2)c1)c1ncn2cc(-c3cn[nH]c3)ccc12 | 5.30 to 6.30 |
| COc1cc(F)cc(CN(Cc2ccccc2)C(=O)N2CCc3cc(-c4cn[nH]c4)ccc32)c1 | 5.30 to 6.30 |
| CN(C)C[C@@H](NC(=O)N1CCc2cc(-c3c[nH]nc3F)c(F)cc21)c1cc(F)cc(F)c1 | ≥ 7.30 |
| COc1cc(F)cc(CNC(=O)N2CCc3cc(-c4cn[nH]c4)cnc32)c1 | 6.30 to 7.30 |
| COc1cccc(CNC(=O)c2ncn3cc(-c4cn[nH]c4)ccc23)c1 | 6.30 to 7.30 |
| O=C(NCc1cccc(OCC2CC2)c1)N1CCc2cc(-c3c[nH]nc3F)c(F)cc21 | 6.30 to 7.30 |
| COc1cccc(CCC(=O)N2CCc3cc(-c4c[nH]nc4N)c(F)cc32)c1 | 5.30 to 6.30 |

Query: For ROCK1 kinase (Homo sapiens), provide pIC50 of "COc1cc(F)cc(CN(C(=O)N2CCc3cc(-c4cn[nH]c4)ccc3C2)C2CCOCC2)c1" please.
Response: 6.30 to 7.30

Query: For ROCK1 kinase (Homo sapiens), provide pIC50 of "COc1cc(F)cc([C@@H](CO)NC(=O)c2cnc3cc(-c4cn[nH]c4)ccn23)c1" please.
Response: ≥ 7.30

Query: For ROCK1 kinase (Homo sapiens), provide pIC50 of "COCCOc1cc(F)cc(CNC(=O)N2CCc3cc(-c4cn[nH]c4)ccc32)c1" please.
Response: ≥ 7.30

Query: For ROCK1 kinase (Homo sapiens), provide pIC50 of "COc1cc(F)cc(CNC(=O)N2CCc3nc(-c4cn[nH]c4)sc3C2)c1" please.
Response: 6.30 to 7.30

Query: For ROCK1 kinase (Homo sapiens), provide pIC50 of "Nc1n[nH]cc1-c1cc2c(cc1F)N(C(=O)NCc1cc(F)cc(F)c1)CC2" please.
Response: 5.30 to 6.30

Query: For ROCK1 kinase (Homo sapiens), provide pIC50 of "O=C(NCc1ccc2[nH]cnc2c1)N1CCc2cc(-c3cn[nH]c3)ccc21" please.
Response: 6.30 to 7.30

Query: For ROCK1 kinase (Homo sapiens), provide pIC50 of "O=C(COc1cc(F)cc([C@@H](CO)NC(=O)N2CCc3cc(-c4cn[nH]c4)c(F)cc32)c1)N1CC(F)(F)C1" please.
Response: ≥ 7.30

###

- test_details: In vivo pharmacokinetic study in mice
- details: mouse, plasma, Po, 3.4 mg/kg
measurement_kind: AUC(0-t) (ng·h/mL)
The reply should be a number in ng·h/mL, with the unit left off.

Query: What does the data say about its AUC(0-t)? Entry: "COc1cc(F)cc(CNC(=O)c2ncn3cc(-c4cn[nH]c4)ccc23)c1"
Response: 8880

###

Measured Cmax values are reported for all entries that follow.
- test_details: In vivo pharmacokinetic study in mice
- details: mouse, plasma, Iv, 1 mg/kg
The reply should be a number in µg/mL, with the unit left off.

Example results:
| compound | measurement_kind | observed_result |
| --- | --- | --- |
| COc1cccc(CNC(=O)N2CCc3cc(-c4c[nH]nc4F)c(F)cc32)c1 [Compound T357] | Cmax | 0.811 |
| COc1cccc(CNC(=O)N2CCc3cc(-c4c[nH]nc4N)c(F)cc32)c1 [Compound T345] | Cmax | 0.977 |

Attention now shifts to the item below.
Query: What does the data say about its Cmax? Entry: O=C(NCc1cc(F)cc(F)c1)N1CCc2cc(-c3cn[nH]c3F)c(F)cc21 [Compound T387]
Response: 0.492

###

- test_details: In vivo pharmacokinetic study in mice
- details: mouse, plasma, 3 mg/kg Po vs Iv
measurement_kind: bioavailability
Be sure to follow the number with its unit.

| molecule | bioavailability |
| --- | --- |
| COc1cc(F)cc(CNC(=O)N2CCc3cc(-c4cn[nH]c4)ccc32)c1 [Compound T202] | 90.3% |

Query: What does the data say about its bioavailability? Entry: COc1cc(F)cc(CNC(=O)N2CCc3cc(-c4cn[nH]c4)ccc3C2)c1 [Compound T201]
Response: 42.4%

###

- tested_on: ROCK2 kinase (Homo sapiens, UniProt O75116)
- Sequence (O75116 whole entry): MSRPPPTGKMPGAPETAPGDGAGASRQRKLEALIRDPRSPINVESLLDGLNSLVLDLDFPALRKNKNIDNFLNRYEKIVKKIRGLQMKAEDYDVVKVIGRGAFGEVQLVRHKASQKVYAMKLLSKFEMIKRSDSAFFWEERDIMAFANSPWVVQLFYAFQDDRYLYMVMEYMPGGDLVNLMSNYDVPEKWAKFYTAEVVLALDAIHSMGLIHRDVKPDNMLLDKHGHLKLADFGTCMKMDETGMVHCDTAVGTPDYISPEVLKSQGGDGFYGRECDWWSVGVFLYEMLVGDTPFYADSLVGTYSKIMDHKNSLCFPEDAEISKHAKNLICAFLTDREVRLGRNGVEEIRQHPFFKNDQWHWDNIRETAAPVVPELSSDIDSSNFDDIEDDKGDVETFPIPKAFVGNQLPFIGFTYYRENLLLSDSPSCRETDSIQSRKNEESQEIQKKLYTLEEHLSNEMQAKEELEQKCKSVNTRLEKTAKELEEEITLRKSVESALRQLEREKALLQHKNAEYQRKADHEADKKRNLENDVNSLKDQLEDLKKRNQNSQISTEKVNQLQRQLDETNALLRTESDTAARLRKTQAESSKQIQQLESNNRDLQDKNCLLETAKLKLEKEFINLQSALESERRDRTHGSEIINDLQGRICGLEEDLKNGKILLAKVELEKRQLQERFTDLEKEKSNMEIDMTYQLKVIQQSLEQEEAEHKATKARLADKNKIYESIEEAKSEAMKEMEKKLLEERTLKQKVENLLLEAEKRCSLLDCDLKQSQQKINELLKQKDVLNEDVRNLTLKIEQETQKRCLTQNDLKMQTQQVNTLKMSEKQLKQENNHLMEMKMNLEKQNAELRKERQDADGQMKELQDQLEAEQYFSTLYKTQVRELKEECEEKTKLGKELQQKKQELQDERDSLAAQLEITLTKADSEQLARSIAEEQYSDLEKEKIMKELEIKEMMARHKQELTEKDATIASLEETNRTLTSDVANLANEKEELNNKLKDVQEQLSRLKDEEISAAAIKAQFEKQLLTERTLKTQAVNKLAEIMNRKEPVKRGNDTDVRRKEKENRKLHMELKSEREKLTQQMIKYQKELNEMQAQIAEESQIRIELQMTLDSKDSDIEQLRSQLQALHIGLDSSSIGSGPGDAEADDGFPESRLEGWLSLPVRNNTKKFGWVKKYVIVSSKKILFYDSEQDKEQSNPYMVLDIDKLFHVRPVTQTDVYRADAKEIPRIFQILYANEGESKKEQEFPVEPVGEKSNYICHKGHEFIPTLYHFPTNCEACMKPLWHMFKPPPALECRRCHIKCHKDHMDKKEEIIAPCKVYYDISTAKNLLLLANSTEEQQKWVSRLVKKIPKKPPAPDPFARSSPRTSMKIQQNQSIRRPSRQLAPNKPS
Measured IC50 values are reported for all entries that follow.

Query: What does the data say about its IC50? Entry: "COc1cc(F)cc(CN(Cc2ccccc2)C(=O)N2CCc3cc(-c4cn[nH]c4)ccc32)c1"
Response: 500 to 5000 nM

Query: What does the data say about its IC50? Entry: "COc1cc(F)cc(CNC(=O)N2CCc3cc(-c4c[nH]nc4N)c(F)cc32)c1"
Response: ≤ 50 nM

Query: What does the data say about its IC50? Entry: "COc1cc(F)cc(CNC(=O)c2nn(C)c3cc(-c4cn[nH]c4)ccc23)c1"
Response: ≤ 50 nM

Query: What does the data say about its IC50? Entry: "O=C(NCc1cccc(F)c1)c1ncn2cc(-c3cn[nH]c3)ccc12"
Response: 50 to 500 nM

Query: What does the data say about its IC50? Entry: "COc1cc(F)cc(CNC(=O)c2cnn3cc(-c4cn[nH]c4)ccc23)c1"
Response: ≤ 50 nM

Query: What does the data say about its IC50? Entry: "O=C(NCc1cc(F)cc(F)c1)N1CCc2cc(-c3cn[nH]c3)ccc21"
Response: ≤ 50 nM

###

- test_details: In vivo pharmacokinetic study in mice
- details: mouse, plasma, Po, 3 mg/kg
measurement_kind: AUC(0-t) (ng·h/mL)
The reply should be a number in ng·h/mL, with the unit left off.

| smiles_structure | observed_result |
| --- | --- |
| COc1cc(F)cc(CNC(=O)N2CCc3cc(-c4cn[nH]c4)ccc32)c1 | 1570 |

Attention now shifts to the item below.
Query: What does the data say about its AUC(0-t)? Entry: "COc1cc(F)cc(CNC(=O)N2CCc3cc(-c4cn[nH]c4)ccc3C2)c1"
Response: 175

###

- test_details: In vivo pharmacokinetic study in mice
- details: mouse, plasma, Iv, 3.4 mg/kg
measurement_kind: Cmax (ng/mL)
The reply should be a number in ng/mL, with the unit left off.

Query: What does the data say about its Cmax? Entry: COc1cc(F)cc(CNC(=O)c2ncn3cc(-c4cn[nH]c4)ccc23)c1 [Compound T238]
Response: 4940

###

- test_details: In vitro cytotoxicity assay in HepG2 cells, CCK-8 method
- details: human
measurement_kind: CC50 at 48 h

Example results:
| smiles_structure | measurement_kind | observed_result |
| --- | --- | --- |
| COc1cccc([C@@H](CO)NC(=O)N2CCc3cc(-c4cn[nH]c4)c(F)cc32)c1 | CC50 at 48 h | 45 µM |
| COc1cc(F)cc(CNC(=O)N2CCCc3cc(-c4cn[nH]c4)ccc32)c1 | CC50 at 48 h | > 50 µM |
| COc1cc(F)cc(CNC(=O)c2ncn3cc(-c4cn[nH]c4F)ccc23)c1 | CC50 at 48 h | > 100 µM |
| COc1cc(F)cc(CNC(=O)N2CCc3cc(-c4c[nH]nc4N)c(F)cc32)c1 | CC50 at 48 h | > 100 µM |
| O=C(NC1CCCC1)c1cccc([C@H](CO)NC(=O)N2CCc3cc(-c4cn[nH]c4)c(F)cc32)c1 | CC50 at 48 h | > 200 µM |

Query: What does the data say about its CC50 at 48 h? Entry: "O=C(NCc1cc(F)cc(F)c1)N1CCc2cc(-c3cn[nH]c3F)c(F)cc21"
Response: > 100 µM

Query: What does the data say about its CC50 at 48 h? Entry: "COc1cc(F)cc(CNC(=O)N2CCOc3cc(-c4cn[nH]c4)ccc32)c1"
Response: > 50 µM

Query: What does the data say about its CC50 at 48 h? Entry: "COc1cccc(CNC(=O)N2CCc3cc(-c4c[nH]nc4F)c(F)cc32)c1"
Response: 96 µM

Query: What does the data say about its CC50 at 48 h? Entry: "COc1cc(CNC(=O)N2CCc3cc(-c4cn[nH]c4F)c(F)cc32)ccc1F"
Response: > 100 µM

Query: What does the data say about its CC50 at 48 h? Entry: "O=C(NCc1cccc(OCC2CC2)c1)N1CCc2cc(-c3c[nH]nc3F)c(F)cc21"
Response: 35.3 µM
